FYI, the data here is from ChEMBL document CHEMBL1145928.

Target: Opioid receptors; delta & kappa (Homo sapiens) (UniProt P41145+P41143)
Sequence (P41143 whole entry, looked up): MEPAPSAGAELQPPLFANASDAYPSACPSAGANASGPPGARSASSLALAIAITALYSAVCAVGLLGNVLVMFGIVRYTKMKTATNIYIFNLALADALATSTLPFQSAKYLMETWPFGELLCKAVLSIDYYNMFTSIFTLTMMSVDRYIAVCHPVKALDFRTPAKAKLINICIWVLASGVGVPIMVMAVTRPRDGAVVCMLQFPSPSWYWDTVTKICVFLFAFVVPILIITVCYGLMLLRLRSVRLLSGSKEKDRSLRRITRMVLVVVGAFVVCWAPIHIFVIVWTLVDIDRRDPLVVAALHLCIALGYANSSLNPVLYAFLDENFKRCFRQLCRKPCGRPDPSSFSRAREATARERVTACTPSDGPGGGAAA
Sequence (P41145 whole entry, looked up): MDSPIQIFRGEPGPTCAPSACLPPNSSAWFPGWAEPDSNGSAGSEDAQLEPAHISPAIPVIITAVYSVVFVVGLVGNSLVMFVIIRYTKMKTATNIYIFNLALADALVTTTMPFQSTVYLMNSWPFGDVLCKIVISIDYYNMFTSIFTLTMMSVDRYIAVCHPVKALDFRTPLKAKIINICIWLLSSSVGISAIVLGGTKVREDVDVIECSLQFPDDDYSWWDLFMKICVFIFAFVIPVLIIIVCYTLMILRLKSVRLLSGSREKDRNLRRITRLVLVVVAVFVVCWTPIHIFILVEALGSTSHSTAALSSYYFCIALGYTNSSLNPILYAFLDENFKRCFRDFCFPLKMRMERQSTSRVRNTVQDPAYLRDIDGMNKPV
Experiment: Ratio of (Ki) delta-opioid receptor to that of (Ki) kappa-opioid receptor
Type: protein assay
# note: boundary value 30 maps to rule not met; Ratio below it maps to rule met

Here are 5 compounds together with their reported answers.
Query: Determine if N=C(N)NCCc1ccc2[nH]c3c(c2c1)C[C@@]1(O)[C@H]2Cc4ccc(O)c5c4[C@@]1(CCN2CC1CC1)[C@H]3O5 shows Ratio strictly lower than 30.
Result: rule met

Query: Consider the compound N/C(=N/Cc1ccccc1)Nc1ccc2[nH]c3c(c2c1)C[C@@]1(O)[C@H]2Cc4ccc(O)c5c4[C@@]1(CCN2CC1CC1)[C@H]3O5 . Is its Ratio strictly less than 30?
Result: rule not met

Query: Input N/C(=N/Cc1ccc([N+](=O)[O-])cc1)Nc1ccc2[nH]c3c(c2c1)C[C@@]1(O)[C@H]2Cc4ccc(O)c5c4[C@@]1(CCN2CC1CC1)[C@H]3O5 ; condition: Ratio strictly below 30. Does it hold?
Result: rule not met

Query: Quick check: Ratio of CCCN/C(=N\CC1CC1)Nc1ccc2[nH]c3c(c2c1)C[C@@]1(O)[C@H]2Cc4ccc(O)c5c4[C@@]1(CCN2CC1CC1)[C@H]3O5 under 30?
Result: rule met

Query: Please determine if N=C(N)NCc1ccc2[nH]c3c(c2c1)C[C@@]1(O)[C@H]2Cc4ccc(O)c5c4[C@@]1(CCN2CC1CC1)[C@H]3O5 is below 30 in terms of Ratio.
Result: rule not met

Further cases:
Query: Criterion: Ratio strictly below 30. Is it met by N/C(=N\CCc1ccc2[nH]c3c(c2c1)C[C@@]1(O)[C@H]2Cc4ccc(O)c5c4[C@@]1(CCN2CC1CC1)[C@H]3O5)NCc1ccc([N+](=O)[O-])cc1 ?
Result: rule met
